- system.name: ATP-dependent translocase ABCB1 (Homo sapiens)
- procedure.summary: Inhibition of human ABCB1 expressed in mouse L5178 cells assessed as 95% inhibition of cell proliferation at compound-doxorubicin ratio of 81.5:1 after 48 hrs by MTT assay
- Assay type: cell-based
- test.parameters: l5178, 48 h
measured.metric: fractional inhibitory concentration index (FICI)
// return just the number, without any unit appended

// query fractional inhibitory concentration index (FICI) value for entry CC(C)(O)CC[C@@H](O)[C@](C)(O)[C@H]1CC[C@@]2(O)C3=CC(=O)[C@@H]4C[C@@H](O)[C@@H](O)C[C@]4(C)C3=CC[C@]12C
4.61

// query fractional inhibitory concentration index (FICI) value for entry CC(=O)O[C@H]1C[C@]2(C)[C@H]3CC[C@]4(C)[C@@H]([C@@](C)(O)[C@@H](CCC(C)(C)OC(C)=O)OC(C)=O)CC[C@@]4(O)C3=CC(=O)[C@]2(O)C[C@H]1OC(C)=O
0.38

// query fractional inhibitory concentration index (FICI) value for entry CC1(C)CC[C@H]([C@](C)(O)[C@H]2CC[C@@]3(O)C4=CC(=O)[C@@H]5C[C@@H](O)[C@@H](O)C[C@]5(C)[C@H]4CC[C@]23C)O1
0.096

// query fractional inhibitory concentration index (FICI) value for entry CC(C)(O)CC[C@H]1OC(C)(C)O[C@]1(C)[C@H]1CC[C@@]2(O)C3=CC(=O)[C@H]4C[C@@H](O)CC[C@]4(C)[C@H]3CC[C@]12C
0.37

// query fractional inhibitory concentration index (FICI) value for entry CC(C)CC[C@@H](O)[C@](C)(O)[C@H]1CC[C@@]2(O)C3=CC(=O)[C@@H]4C[C@@H](O)[C@@H](O)C[C@]4(C)[C@H]3CC[C@]12C
0.44

// query fractional inhibitory concentration index (FICI) value for entry CC(C)(O)CC[C@@H](O)[C@](C)(O)[C@H]1CC[C@]2(O)C3=CC(=O)[C@@H]4C[C@@H](O)[C@@H](O)C[C@]4(C)[C@H]3CC[C@]12C
0.69

// query fractional inhibitory concentration index (FICI) value for entry CC(C)(O)CC[C@@H](O)[C@](C)(O)[C@H]1CC[C@@]2(O)C3=CC(=O)[C@@H]4C[C@@H](O)[C@@H](O)C[C@]4(C)[C@H]3[C@H](O)C[C@]12C
4.2

// query fractional inhibitory concentration index (FICI) value for entry CC[C@H](C[C@H]1OC(C)(C)O[C@]1(C)[C@H]1CC[C@@]2(O)C3=CC(=O)[C@@H]4C[C@@H](O)[C@@H](O)C[C@]4(C)[C@H]3CC[C@]12C)C(C)(C)O
0.091

// query fractional inhibitory concentration index (FICI) value for entry CC(C)(O)CC[C@@H](O)[C@](C)(O)[C@H]1CC[C@@]2(O)C3=CC(=O)[C@@H]4C[C@H](O)[C@@H](O)C[C@]4(C)[C@H]3CC[C@]12C
0.22

// query fractional inhibitory concentration index (FICI) value for entry CC(C)(O)CC[C@@H](O)[C@](C)(O)[C@H]1CC[C@@]2(O)C3=CC(=O)[C@@]4(O)C[C@@H](O)CC[C@]4(C)[C@H]3CC[C@]12C
0.27

// query fractional inhibitory concentration index (FICI) value for entry CC(C)(CC[C@@H](O)[C@](C)(O)[C@H]1CC[C@@]2(O)C3=CC(=O)[C@@H]4C[C@@H](O)CC[C@]4(C)[C@H]3CC[C@]12C)O[C@@H]1O[C@H](CO)[C@@H](O)[C@H](O)[C@H]1O
0.51

====

- system.name: UniProt P08183
- procedure.summary: Inhibition of human ABCB1 pump expressed in mouse L5178 cells assessed as fluorescence activity ratio at 20 uM for 10 mins by flow cytometry relative to control
- Type: cell-based
- test.parameters: l5178, 10 min
measured.metric: Ratio
// return just the number, without any unit appended

// query Ratio value for entry CC(=O)O[C@H](CCC(C)(C)O)[C@](C)(O)[C@H]1CC[C@@]2(O)C3=CC(=O)[C@@H]4C[C@@H](O)CC[C@]4(C)[C@H]3CC[C@]12C
1.21

// query Ratio value for entry CC(=O)[C@H]1CC[C@@]2(O)C3=CC(=O)[C@@H]4C[C@@H](O)[C@@H](O)C[C@]4(C)C3=CC[C@]12C
5.4

// query Ratio value for entry CC(C)(O)CC[C@@H](O)[C@](C)(O)[C@H]1CC[C@@]2(O)C3=CC(=O)[C@@H]4C[C@@H](O)[C@@H](O)[C@@H](O)[C@]4(C)[C@H]3CC[C@]12C
0.94

// query Ratio value for entry CC(C)(O)CC[C@@H](O)[C@](C)(O)[C@H]1CC[C@]2(O)C3=CC(=O)[C@@H]4C[C@@H](O)[C@@H](O)C[C@]4(C)[C@H]3CC[C@]12C
1.03

// query Ratio value for entry CCC1=C(C)C(=O)O[C@@H]([C@](C)(O)[C@H]2CC[C@@]3(O)C4=CC(=O)[C@@H]5C[C@@H](O)[C@@H](O)C[C@]5(C)[C@H]4CC(=O)[C@]23C)C1
0.87

====

- system.name: ATP-dependent translocase ABCB1 (Homo sapiens, UniProt P08183)
- Sequence (P08183 whole entry): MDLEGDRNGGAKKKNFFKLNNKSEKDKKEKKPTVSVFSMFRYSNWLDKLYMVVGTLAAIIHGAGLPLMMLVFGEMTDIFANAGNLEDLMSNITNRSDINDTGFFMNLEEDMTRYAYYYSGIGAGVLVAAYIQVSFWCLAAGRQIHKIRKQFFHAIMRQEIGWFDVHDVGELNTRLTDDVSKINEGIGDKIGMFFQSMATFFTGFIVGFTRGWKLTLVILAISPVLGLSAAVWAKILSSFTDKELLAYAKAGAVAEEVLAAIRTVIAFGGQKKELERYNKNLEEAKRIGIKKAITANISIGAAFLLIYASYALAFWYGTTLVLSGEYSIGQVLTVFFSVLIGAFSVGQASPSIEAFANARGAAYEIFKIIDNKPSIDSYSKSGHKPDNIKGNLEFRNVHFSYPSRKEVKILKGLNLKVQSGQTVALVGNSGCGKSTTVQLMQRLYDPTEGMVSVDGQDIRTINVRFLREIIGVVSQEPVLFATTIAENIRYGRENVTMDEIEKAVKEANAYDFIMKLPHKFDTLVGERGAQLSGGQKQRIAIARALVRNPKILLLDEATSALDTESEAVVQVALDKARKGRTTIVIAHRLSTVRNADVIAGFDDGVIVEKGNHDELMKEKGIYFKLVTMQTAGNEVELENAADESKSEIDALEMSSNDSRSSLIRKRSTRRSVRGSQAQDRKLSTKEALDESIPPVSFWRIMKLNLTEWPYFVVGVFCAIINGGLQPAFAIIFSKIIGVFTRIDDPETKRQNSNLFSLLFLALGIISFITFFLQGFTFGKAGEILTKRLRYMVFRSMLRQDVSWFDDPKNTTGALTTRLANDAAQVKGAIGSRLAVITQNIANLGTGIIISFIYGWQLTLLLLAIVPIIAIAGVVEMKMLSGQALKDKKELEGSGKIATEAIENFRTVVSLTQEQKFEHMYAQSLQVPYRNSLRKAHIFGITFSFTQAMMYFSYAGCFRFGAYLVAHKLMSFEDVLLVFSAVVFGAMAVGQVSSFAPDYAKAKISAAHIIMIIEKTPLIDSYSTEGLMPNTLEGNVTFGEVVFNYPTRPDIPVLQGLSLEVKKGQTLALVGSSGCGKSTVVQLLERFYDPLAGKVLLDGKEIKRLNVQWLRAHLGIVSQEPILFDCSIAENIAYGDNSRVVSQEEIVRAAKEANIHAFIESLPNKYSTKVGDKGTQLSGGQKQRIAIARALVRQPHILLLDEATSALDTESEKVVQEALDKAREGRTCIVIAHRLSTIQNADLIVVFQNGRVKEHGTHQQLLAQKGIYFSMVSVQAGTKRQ
- procedure.summary: Inhibition of human ABCB1 expressed in mouse L5178 cells assessed as 75% inhibition of cell proliferation at compound-doxorubicin ratio of 40.8:1 after 48 hrs by MTT assay
- Assay type: cell-based
- test.parameters: l5178, 48 h
measured.metric: fractional inhibitory concentration index (FICI)
// return just the number, without any unit appended

// query fractional inhibitory concentration index (FICI) value for entry CC(C)(O)CCC[C@](C)(O)[C@H]1CC[C@@]2(O)C3=CC(=O)[C@@H]4C[C@@H](O)[C@@H](O)[C@@H](O)[C@]4(C)[C@H]3CC[C@]12C
0.9

// query fractional inhibitory concentration index (FICI) value for entry C[C@@H]1C(=O)O[C@H](C)[C@H]1C[C@@H](O)[C@](C)(O)[C@H]1CC[C@@]2(O)C3=CC(=O)[C@@H]4C[C@@H](O)[C@@H](O)C[C@]4(C)[C@H]3CC[C@]12C [CYASTERONE]
0.85

// query fractional inhibitory concentration index (FICI) value for entry CC(C)(O)CC[C@H]1OC(C)(C)O[C@]1(C)[C@H]1CC[C@@]2(O)C3=CC(=O)[C@@H]4C[C@@H](O)[C@@H](O)[C@@H](O)[C@]4(C)[C@H]3CC[C@]12C
0.51

// query fractional inhibitory concentration index (FICI) value for entry CC(=O)O[C@H]1C[C@]2(C)[C@H]3CC[C@]4(C)[C@@H]([C@@](C)(O)[C@@H](CCC(C)(C)O)OC(C)=O)CC[C@@]4(O)C3=CC(=O)[C@]2(O)C[C@H]1O
0.86

// query fractional inhibitory concentration index (FICI) value for entry CC[C@H](C[C@@H](O)[C@](C)(O)[C@H]1CC[C@@]2(O)C3=CC(=O)[C@@H]4C[C@@H](O)[C@@H](O)C[C@]4(C)[C@H]3CC[C@]12C)C(C)(C)O [MAKISTERONE C]
0.42

// query fractional inhibitory concentration index (FICI) value for entry CC(=O)O[C@H]1C[C@@]2(C)[C@@H](C[C@H]1OC(C)=O)C(=O)C=C1[C@@H]2CC[C@]2(C)[C@@H]([C@@](C)(O)[C@@H](CCC(C)(C)O)OC(C)=O)CC[C@@]12O
0.91

// query fractional inhibitory concentration index (FICI) value for entry CC(C)CC[C@@H](O)[C@](C)(O)[C@H]1CC[C@@]2(O)C3=CC(=O)[C@@H]4C[C@@H](O)[C@@H](O)C[C@]4(C)C3=CC[C@]12C [DACRYHAINANSTERONE]
2.92

// query fractional inhibitory concentration index (FICI) value for entry CC(O)(CO)CC[C@H]1OC(C)(C)O[C@]1(C)[C@H]1CC[C@@]2(O)C3=CC(=O)[C@]4(O)C[C@@H](O)[C@@H](O)C[C@]4(C)[C@H]3CC[C@]12C (stereo not given in full)
0.16

// query fractional inhibitory concentration index (FICI) value for entry CC(C)[C@@H](O)C[C@@H](O)[C@](C)(O)[C@H]1CC[C@@]2(O)C3=CC(=O)[C@@H]4C[C@@H](O)[C@@H](O)C[C@]4(C)[C@H]3CC[C@]12C [PTEROSTERONE]
0.84

// query fractional inhibitory concentration index (FICI) value for entry C=C(C)C(C[C@@H](O)[C@](C)(O)[C@H]1CC[C@@]2(O)C3=CC(=O)[C@]4(O)C[C@@H](O)[C@@H](O)C[C@]4(C)[C@H]3CC[C@]12C)C(C)O (stereo not given in full) [AJUGASTERONE B]
0.59

====

- system.name: UniProtKB P08183
- procedure.summary: Inhibition of human ABCB1 expressed in mouse L5178 cells assessed as 50% inhibition of cell proliferation at compound-doxorubicin ratio of 40.8:1 after 48 hrs by MTT assay
- Format: cell-based
- test.parameters: l5178, 48 h
Please provide measured fractional inhibitory concentration index (FICI) for the entries that follow.
// return just the number, without any unit appended

Reported fractional inhibitory concentration index (FICI) for UniProtKB P08183, given C[C@@H]1C(=O)O[C@H](C)[C@H]1C[C@@H](O)[C@](C)(O)[C@H]1CC[C@@]2(O)C3=CC(=O)[C@@H]4C[C@@H](O)[C@@H](O)C[C@]4(C)[C@H]3CC[C@]12C ?
1.54

Reported fractional inhibitory concentration index (FICI) for UniProtKB P08183, given CC(=O)O[C@H]1C[C@]2(C)[C@H]3CC[C@]4(C)[C@@H]([C@@](C)(O)[C@@H](CCC(C)(C)O)OC(C)=O)CC[C@@]4(O)C3=CC(=O)[C@]2(O)C[C@H]1O ?
1.22

Reported fractional inhibitory concentration index (FICI) for UniProtKB P08183, given CC(=O)O[C@H]1C[C@]2(C)[C@H]3CC[C@]4(C)[C@@H]([C@@](C)(O)[C@@H](CCC(C)(C)O)OC(C)=O)CC[C@@]4(O)C3=CC(=O)[C@]2(O)C[C@H]1OC(C)=O ?
0.35

Reported fractional inhibitory concentration index (FICI) for UniProtKB P08183, given CC(=O)O[C@H]1C[C@@]2(C)[C@@H](C[C@H]1OC(C)=O)C(=O)C=C1[C@@H]2CC[C@]2(C)[C@@H]([C@@](C)(O)[C@@H](CCC(C)(C)O)OC(C)=O)CC[C@@]12O ?
1.26
